Tested on: 379773-124-R-J2-PDC spheroid viability;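 also: spheroids exposed to drugs for seven days before readout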
ASSAY_PROCEDURE: Anticancer human tumor 379773-124-R-J2-PDC patient-derived endometrial carcinoma cell line growth inhibition [POLQ]; active = viability on the fitted dose curve at most 10% of control; inactive = the rest
APPLIED_CONDITIONS: second compound 1 µM; first compound 0.1 µM; spheroids with HUVEC and MSC
Allowed answers: active, inactive

The following molecules have reported results that may help.
| MOLECULE | DISCRETE_LABEL |
| --- | --- |
| CC1COCCN1c1cc(-c2ccnn2C)c2ccnc(-c3ccn[nH]3)c2n1 (stereo unspecified) + Cc1cccc(N(C)C(=O)C2C(O)CCN2c2nc(C)cc(C(F)(F)F)c2C#N)c1 | inactive |
| CC[C@@]1(O)C(=O)OCc2c1cc1n(c2=O)Cc2cc3c(CN(C)C)c(O)ccc3nc2-1 + Nc1ccc(C#CCN(C(=O)Cc2ncc(C(F)(F)F)cc2C(F)(F)F)c2ccc(F)cc2)nn1 | inactive |
| COc1cccc(OCCCN)c1-c1cc(Nc2cnc(C#N)cn2)n[nH]1 + Cc1cccc(N(C)C(=O)C2C(O)CCN2c2nc(C)cc(C(F)(F)F)c2C#N)c1 | active |
| CC1COCCN1c1cc(C2(S(C)(=N)=O)CC2)nc(-c2ccnc3[nH]ccc23)n1 (stereo unspecified) + Nc1ccc(C#CCN(C(=O)Cc2ncc(C(F)(F)F)cc2C(F)(F)F)c2ccc(F)cc2)nn1 | inactive |

Input: Assay outcome for CC(C)n1c(=O)n(C)c2cnc3cc(F)c(-c4ccc(OCCCN5CCCCC5)nc4)cc3c21 + Cc1cccc(N(C)C(=O)C2C(O)CCN2c2nc(C)cc(C(F)(F)F)c2C#N)c1 : what was it?
Output: inactive

Input: Assay outcome for COc1ccc([C@@H](O)c2cc(-c3ncnc4cc(N5CCOCC5)ccc34)c(F)cc2Cl)nn1 + Nc1ccc(C#CCN(C(=O)Cc2ncc(C(F)(F)F)cc2C(F)(F)F)c2ccc(F)cc2)nn1 : what was it?
Output: inactive
